Study system: UniProt Q6IQ20
Sequence (Q6IQ20 48-393 limits assumed): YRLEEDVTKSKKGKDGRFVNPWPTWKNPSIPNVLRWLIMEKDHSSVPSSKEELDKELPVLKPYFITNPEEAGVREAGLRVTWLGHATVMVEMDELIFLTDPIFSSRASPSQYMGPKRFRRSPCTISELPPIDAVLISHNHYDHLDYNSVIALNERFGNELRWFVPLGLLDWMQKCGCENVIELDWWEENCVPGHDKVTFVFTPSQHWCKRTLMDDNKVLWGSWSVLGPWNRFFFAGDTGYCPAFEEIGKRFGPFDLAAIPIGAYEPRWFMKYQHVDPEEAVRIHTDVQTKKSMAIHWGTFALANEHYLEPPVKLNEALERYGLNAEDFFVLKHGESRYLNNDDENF
Protocol: Fluorescence-based NAPE-PLD activity assay with substrate PED6
Format: biochemical

Compound: C[C@H](CCC(=O)O)[C@H]1CC[C@H]2[C@@H]3[C@H](O)C[C@@H]4C[C@H](O)CC[C@]4(C)[C@H]3CC[C@]12C [CDCA, chenodeoxycholic acid]
EC50: ~4.3 mM

====

Study system: NAPE-PLD (Homo sapiens)
Protocol: Fluorescence-based NAPE-PLD activity assay with substrate PED6
Assay type: biochemical
Protocol conditions: read-out: EC50 of enzyme activation; enzyme 25 nM, PED6 substrate, 25 °C, 30 min
pEC50: −log10 of the molar value.

Chemical structure: C[C@H](CCC(=O)NCC(=O)O)[C@H]1CC[C@H]2[C@@H]3[C@H](O)C[C@@H]4C[C@H](O)CC[C@]4(C)[C@H]3CC[C@]12C
pEC50: ~2.44
